# runDescription: Observed MRT (0 to infinity) in Sprague-Dawley rat at 10 mg/kg, po
# Assay type: ADME, organism-based
# experimentalParameters: in vivo
measuredAttribute: MRT inf (h)
Use h as the unit, but write only the number.

## Task Would you mind telling me what MRT inf value was observed for `C=C[C@]1(C)C[C@@H](OC(=O)CSc2nc3cc[n+](Cc4ccc(C)cc4)cc3[nH]2)[C@]2(C)[C@H](C)CC[C@]3(CCC(=O)[C@H]32)[C@@H](C)[C@@H]1O.[Br-]` ?
## Result 2.46

###

# runDescription: Observed MRT (0 to infinity) in Sprague-Dawley rat at 5 mg/kg, iv
# Format: ADME, organism-based
# experimentalParameters: in vivo
measuredAttribute: MRT inf

## Task Would you mind telling me what MRT inf value was observed for `C=C[C@]1(C)C[C@@H](OC(=O)CSc2nc3cc[n+](Cc4ccc(C)cc4)cc3[nH]2)[C@]2(C)[C@H](C)CC[C@]3(CCC(=O)[C@H]32)[C@@H](C)[C@@H]1O.[Br-]` ?
## Result 1.14 h
